Entries and their inhibition values follow.
# assay method text: NF-kB reporter blockers in CF airway cells – cell-based, GFP fluorescence, uHTS, primary screen (AID 588850);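 note: PAF is a Pseudomonas aeruginosa culture filtrate used as stimulus; plate controls were PAF-stimulated DMSO wells for no effect and unstimulated DMSO wells for full effect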
# cond: KKLEB NF-kB-GFP reporter, PAF-induced, GFP fluorescence overnight; at 5 µM; stronger effect = higher value
Among all 360,000 compounds or so, about 3,100 (0.86%) were called active. The sample holds actives, similar compounds and a random draw of the others, so the mix is not that of the screen.
Numbers only here, please. The scale is %.

Some entries whose results are on file:
• COc1cc(OC)cc(C(=O)N[C@H](C(=O)OCC(=O)NC(C)c2ccccc2)C(C)C)c1 (stereo not given in full) = 21.2
• O=C(CSc1nc(C2CC2)nc2ccccc12)Nc1ccc2c(c1)OCCO2 = 42.7
• CCN1CCC(O)(/C=C/c2ccc(C)cc2)C(C(=O)/C=C/c2ccc(C)cc2)C1 (stereo not given) = 79.8
• CCCCCn1c(=O)c(C(=O)OCC)c(Cl)c2ccccc21 = 9.9
• Cc1nnc(NC(=O)CSc2nc(C3CCCCC3)nc3ccccc23)s1 = 22.6

// inhibition lookup, key: O=C(Nc1ccn(Cc2ccccc2)n1)c1n[nH]c([N+](=O)[O-])c1Cl
-15.6

// inhibition lookup, key: COc1cc(OC)cc(C(=O)N[C@H](C(=O)Nc2nc3ccccc3[nH]2)C(C)C)c1
64.3

// inhibition lookup, key: O=C(O)CCc1nc2cc(Cl)ccc2n(Cc2ccccc2)c1=O
2.1

// inhibition lookup, key: CC(NC(=O)c1cc2cc(Cl)ccc2oc1=N)c1ccccc1 (stereo not given)
23.8

// inhibition lookup, key: COc1cc(OC)cc(C(=O)N[C@H](C(=O)NNC(=O)c2ccc(Br)cc2)C(C)C)c1
-8.2

----------
# assay method text: NF-kB reporter blockers in CF airway cells – cell-based, GFP fluorescence, uHTS, primary screen (AID 588850)
# cond: KKLEB NF-kB-GFP reporter, PAF-induced, GFP fluorescence overnight; at 5 µM; stronger effect = higher value
The whole screen tested about 360,000 compounds, of which about 3,100 (0.86%) were called active. Many of the other results were omitted from the sample, so actives are more common in it than they were.
Entries and their inhibition values follow.

Some entries whose results are on file:
• CCCCc1nc(NCCN)c(C#N)c2c1CSC(C)(C)C2 = 2.5% (inactive)
• COC(=O)c1ccc(C(=O)OC)c(NC(=S)N2CCN(c3cc(Cl)ccc3C)CC2)c1 = 0.4% (inactive)
• CCOC(=O)c1c(C)[nH]c(C)c1C(=O)COC(=O)/C=C/c1cccc([N+](=O)[O-])c1 = -19.4% (inactive)
• O=c1nc(N2CCOCC2)nc2n1CCO2 = -13% (inactive)
• COC(=O)c1ccc(C(=O)Nc2cc(Cl)ccc2Cl)cc1NC(=O)c1ccccc1C = 54% (active)

// inhibition lookup, key: N#CC1(Nc2ccc(-c3ccc(Cl)cc3)cc2)CCCC1
-34.4% (inactive)

----------
# assay method text: NF-kB reporter blockers in CF airway cells – cell-based, GFP fluorescence, uHTS, primary screen (AID 588850)
# cond: KKLEB NF-kB-GFP reporter, PAF-induced, GFP fluorescence overnight; at 5 µM
Screen size: about 360,000 compounds; about 3,100 (0.86%) were called active.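 How the source made its calls: active means at least 50% inhibition at 5 µM, scaled per plate between neutral and stimulator controls; inactive means the rest.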 Only a selection was taken, and actives are over-represented in it overall.
# valid calls are true (1) for active, false (0) for inactive; nothing else

Worked examples, 5 compounds total:
- CC(C[N+](C)(C)C)OC(N)=O (configuration not stated): false (0)
- CC(=O)c1cccc(-c2cnc3c(NC=O)cc(-c4ccc(N5CCN(C)CC5)cc4)cn23)c1: false (0)
- COc1cc2c3c(c1)/C(=C1/SC(=S)NC1=O)C(=O)N3C(C)(C)C=C2C: true (1)
- CC1CCCCC1NC(=O)Cn1cnc2c1c(=O)n(C)c(=O)n2C (configuration not stated): false (0)
- O=C(NNc1ccccc1Cl)C(O)(c1cccc(C(F)(F)F)c1)c1cccc(C(F)(F)F)c1: true (1)

Recorded test call requested for Cc1ccnc(NS(=O)(=O)c2ccc(NC(=O)c3ccc(S(=O)(=O)N(C)C)cc3)cc2)n1
false (0)

Recorded test call requested for Cc1ccc2c(c1)N(CC(=O)N1CCCc3ccccc31)C(=O)C(C)O2 (configuration not stated)
false (0)

Recorded test call requested for Cc1ccc(C2CCN(C(=S)Nc3cccc(Cl)c3)C2)cc1 (configuration not stated)
false (0)

Recorded test call requested for O=C1CCC(Cc2ccccc2)N1 (configuration not stated)
false (0)

Recorded test call requested for O=C(CNS(=O)(=O)c1cccc(C(F)(F)F)c1)Nc1ccccc1F
false (0)

Recorded test call requested for CC1(C(=O)Nc2cccnc2)Cc2c(-c3ccccc3)ccnc2O1 (configuration not stated)
false (0)

----------
# assay method text: NF-kB reporter blockers in CF airway cells – cell-based, GFP fluorescence, uHTS, primary screen (AID 588850)
# cond: KKLEB NF-kB-GFP reporter, PAF-induced, GFP fluorescence overnight; at 5 µM; stronger effect = higher value
The whole screen tested about 360,000 compounds, of which about 3,100 (0.86%) were called active. The list comes from a sample in which actives are over-represented; it also holds close analogues and randomly drawn compounds.
readout kind: inhibition

Some entries whose results are on file:
• Cc1ccc(S(=O)(=O)CCC(=O)Nc2nnc(CC(C)C)s2)cc1 = 8.1% (inactive)
• C=CCNC(=O)c1ccc2c3n(nc2c1)-c1ccc(C)cc1CO3 = -75.6% (inactive)
• COc1ccc(-c2cc(C(=O)N(C)Cc3ccc(OC)c(OC)c3OC)c3ccccc3n2)cc1OC = 27% (inactive)
• Cc1ccc(CS(=O)(=O)c2ncc(Cl)c(C(=O)Nc3nnc(C)s3)n2)cc1 = 92.5% (active)
• O=Cc1ccc(OCc2cn3ccccc3n2)cc1 = -22.3% (inactive)
• CSc1nnc(NC(=O)c2nc(S(=O)(=O)Cc3ccc(C)cc3)ncc2Cl)s1 = 104% (active)
• CN1OC[C@@H]2CN(C(=O)c3ccc(-c4ccccc4)cc3)[C@H](c3ccc(-c4cccc(F)c4)cc3)C[C@@H]21 = -13% (inactive)
• O=C(Nc1nnc(Cc2ccc(Cl)cc2)s1)c1cccnc1 = 2.8% (inactive)

// inhibition lookup, key: O=C(c1cnn(-c2ccc(Cl)cc2)c1)c1ccccc1O
-14.6% (inactive)

// inhibition lookup, key: COc1ccc(-c2cc(C(=O)N(C)CC(=O)Nc3ccccc3Cl)c3ccccc3n2)cc1OC
22.9% (inactive)

----------
# assay method text: NF-kB reporter blockers in CF airway cells – cell-based, GFP fluorescence, uHTS, primary screen (AID 588850);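 note: PAF is a Pseudomonas aeruginosa culture filtrate used as stimulus; plate controls were PAF-stimulated DMSO wells for no effect and unstimulated DMSO wells for full effect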
# cond: KKLEB NF-kB-GFP reporter, PAF-induced, GFP fluorescence overnight; at 5 µM; stronger effect = higher value
The whole screen tested about 360,000 compounds, of which about 3,100 (0.86%) were called active. For the sample, actives were picked, then their nearest neighbours and some compounds at random.
Entries and their inhibition values follow.

- COc1ccc(CCNc2ncnc3nc[nH]c23)cc1OC: 14.3% (inactive)

// inhibition lookup, key: CN=C(NC#N)NCCSCc1nc[nH]c1C
-4.5% (inactive)

// inhibition lookup, key: O=C1c2ccccc2NC(c2ccccc2O)N1NS(=O)(=O)c1ccccc1 (stereo unspecified)
-6.3% (inactive)

// inhibition lookup, key: O=C(O)Cc1ccc(NCc2ccccc2Cl)cc1
-14.4% (inactive)

// inhibition lookup, key: Cc1ccc(NC(=O)c2ccc(CSc3ncnc4nc[nH]c34)cc2)c(C)c1
-2.8% (inactive)

// inhibition lookup, key: CCc1ccc(N(CC)c2ncnc3nc[nH]c23)cc1
58.2% (active)

----------
# assay method text: NF-kB reporter blockers in CF airway cells – cell-based, GFP fluorescence, uHTS, primary screen (AID 588850);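 note: PAF is a Pseudomonas aeruginosa culture filtrate used as stimulus; plate controls were PAF-stimulated DMSO wells for no effect and unstimulated DMSO wells for full effect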
# cond: KKLEB NF-kB-GFP reporter, PAF-induced, GFP fluorescence overnight; at 5 µM; stronger effect = higher value
Screen size: about 360,000 compounds; about 3,100 (0.86%) were called active. The list comes from a sample in which actives are over-represented; it also holds close analogues and randomly drawn compounds.
readout kind: inhibition (%)
Numbers only here, please. The scale is %.

// inhibition lookup, key: CN(CC(=O)NNC(=O)CNC(=O)c1ccccc1Cl)S(=O)(=O)c1ccc(Cl)cc1
60.5

// inhibition lookup, key: COc1ccc(NC(=O)C2Cc3c(-c4ccc5c(c4)OCO5)ccnc3O2)cn1 (centres undefined)
15.9

// inhibition lookup, key: O=C1C=C(NS(=O)(=O)c2ccccc2)C(=O)c2ccccc21
72

----------
# assay method text: NF-kB reporter blockers in CF airway cells – cell-based, GFP fluorescence, uHTS, primary screen (AID 588850);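 note: PAF is a Pseudomonas aeruginosa culture filtrate used as stimulus; plate controls were PAF-stimulated DMSO wells for no effect and unstimulated DMSO wells for full effect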
# cond: KKLEB NF-kB-GFP reporter, PAF-induced, GFP fluorescence overnight; at 5 µM
In all, about 360,000 compounds went through this assay and about 3,100 (0.86%) were called active.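 How the source made its calls: active means at least 50% inhibition at 5 µM, scaled per plate between neutral and stimulator controls; inactive means the rest.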 This is one part of a sample in which actives are shown more often than they occur.
# valid calls are active, inactive; nothing else

Worked examples, 5 compounds total:
* CC1=C(C)CC(C(=O)NNC(=O)c2ccccc2O)C(C(=O)O)C1 (stereo not drawn) | inactive
* Cc1nn2c(c1-c1ccccc1)N=C(c1ccco1)CC2c1ccccc1 (stereo not drawn) | inactive
* COc1ccccc1NS(=O)(=O)c1ccc(C(=O)N2CCN(c3ccccc3O)CC2)cc1 | inactive
* CC(C)NS(=O)(=O)c1ccc(CCC(=O)N2CCOCC2)cc1 | inactive
* O=C(Nn1cc(C(=O)N2CCN(c3ccccc3F)CC2)c2ccccc2c1=O)c1cnccn1 | inactive

Note: attention shifts to another entry.
Recorded test call requested for CC1CCN(C(=O)c2ccccc2NC(=O)Cc2ccccc2)CC1
inactive
